# Measurement Protocol: Secondary HCV replicon assay, genotype 1A, cytotoxicity (neutral red dye uptake)
# Cond: human
Quantity Measured: CC50 at 3 days

(Q) For the compound C[S+]([O-])c1csc(NC(=O)c2ccccc2O)n1 (stereo not shown) , what CC50 at 3 days is on record?
(A) > 100 µM

----------
# Tested on: HCV replicon cell line, AVA5 (sub-genomic CON1, genotype 1b)
# Measurement Protocol: Primary HCV replicon assay, antiviral activity (intracellular HCV RNA)
# Type: cell-based
# Cond: primary assay; 2-fold depression of intracellular HCV RNA; read-out: EC50
Quantity Measured: EC50 (nM)
Record the value in nM, omitting the unit from your answer.

(Q) For the compound CS(=O)(=O)c1cnc(NC(=O)c2ccccc2O)s1 , what EC50 is on record?
(A) 1500

----------
# Tested on: HCV replicon cell line, AVA5 (sub-genomic CON1, genotype 1b)
# Measurement Protocol: Primary HCV replicon assay, antiviral activity (intracellular HCV RNA)
# Format: cell-based
# Cond: Hepatitis C virus, Ava5; primary assay; 2-fold depression of intracellular HCV RNA; read-out: EC50
Here the recorded EC50 is given for each entry.
Record the value in nM, omitting the unit from your answer.

(Q) For the molecule C[S+]([O-])c1csc(NC(=O)c2ccccc2O)n1 (stereo not drawn) , what EC50 is on record?
(A) 2000

(Q) For the molecule O=C(Nc1ncc([N+](=O)[O-])s1)c1ccccc1O [TIZ, Tizoxanide] , what EC50 is on record?
(A) 150

(Q) For the molecule CC(=O)Oc1ccccc1C(=O)Nc1ncc([N+](=O)[O-])s1 [NTZ, Nitazoxanide] , what EC50 is on record?
(A) 210

----------
# Test system: HCV replicon cell line, AVA5
# Measurement Protocol: Primary HCV replicon assay, cytotoxicity (neutral red dye uptake)
# Cond: primary assay; neutral red dye uptake after 3 days
# Description: Antiviral activity of test compounds was assessed in a 3-day assay using the stably-expressing HCV replicon cell line, AVA5 (sub-genomic CON1, genotype 1b) [Korba, B. E. et al. Antiviral Res. 77, 56-63 (2008); Blight et al., Science 290, 1972-1974 (2000)] maintained as sub-confluent cultures on 96-well plates as previously described [Okuse et al., Antiviral Research 65, 23-34 (2005)]. […]
Quantity Measured: CC50 (µM)
Record the value in µM, omitting the unit from your answer.

Examples from the recorded data:
Compound | CC50 [µM]
CC(=O)Oc1ccccc1C(=O)Nc1ncc([N+](=O)[O-])s1 [NTZ, Nitazoxanide] | 31
CC(=O)Oc1ccccc1C(=O)Nc1ncc(S(C)(=O)=O)s1 | 20
C[S+]([O-])c1csc(NC(=O)c2ccccc2O)n1 (centres unmarked) | 63
CS(=O)(=O)c1cnc(NC(=O)c2ccccc2O)s1 | 43

In the following, a different compound is considered.
(Q) For the compound O=C(Nc1ncc([N+](=O)[O-])s1)c1ccccc1O [TIZ, Tizoxanide] , what CC50 is on record?
(A) 15

----------
# Tested on: HCV replicon cell line, AVA5 (sub-genomic CON1, genotype 1b)
# Measurement Protocol: Secondary HCV replicon assay, genotype 1B, antiviral activity
# Format: cell-based
Quantity Measured: pEC50
# pEC50 = -log10(concentration in molar units)

(Q) For the molecule CS(=O)(=O)c1cnc(NC(=O)c2ccccc2O)s1 [RM4863] , what pEC50 is on record?
(A) 6.05

Every entry's value here was drawn from patent US8772502B2.
